Biological target: T1, D1 domain of human IL-2Rγ extracellular domain expressed with a C-terminal myc-myc-hexahistidine tag (human)
T1 construct: also called human IL2Rγ domain 1
T1 chain: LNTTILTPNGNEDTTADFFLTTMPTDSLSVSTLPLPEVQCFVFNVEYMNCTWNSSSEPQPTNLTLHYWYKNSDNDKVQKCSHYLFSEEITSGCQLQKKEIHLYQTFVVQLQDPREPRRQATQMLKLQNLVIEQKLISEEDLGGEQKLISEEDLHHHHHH
Assay: SPR, mAb captured on anti-hFc, 37 C
measurement-kind: 100 nM Ag Bound (RU)
A number alone suffices; assume RU.

{"columns": ["binder", "100 nM Ag Bound [RU]"],
 "data": [
  ["H4H12889P (antibody, human IgG4 S228P, kappa, V domains shown, human IgG4; also called REGN7257) VH: EVQLVESGGGLVQPGGSLRLSCAASGFIFSSYEMHWVRQAPGKGLEWISYISSSGTTIYYADSVKGRFTISRDNAKNSLYLHMNSLRAEDTAVYYCTRARITGTFDVFDIWGQGTMVTVSS VL: DIQMTQSPSSLSASVGDRVTITCRASQSISSYLNWYQQKPGKAPKLLIFAASNLQSGVPSRFSGSRSGTDFTLTISSLQPEDFATYYCQQNYNIPYTFGQGTKLEIKR", 16],
  ["H4H12857P (antibody, human IgG4 S228P, kappa, V domains shown, human IgG4; also called REGN9432) VH: EVQLVESGGGVVRPGGSLRLSCAASGFTFDDFDMSWVRQGPGKGLEWVSGINWHGSSTGYADSVKGRFTISRDNAKNSLYLQMSSLRAEDTALYHCVRGGTIVGATTPLDYWGQGTLVTVSS VL: DIQMTQSPSSLSASVGDRVTMTCRASRTISSYLSWYQQKSGKVPNLLIFGASSLQSGVPSRFSASGSGTDFTLIISSLQPEDFATYYCQQSYSSPLTFGGGTKVEIKR", 1]
]}

Challenge: Find the recorded 100 nM Ag Bound belonging to H4H12890P (antibody, human IgG4 S228P, kappa, V domains shown, human IgG4) VH: EVQLVESGGGLVQPGGSLRLSCAASGFTFNNYAMHWVRQAPGKGLEYVSSISSSGGSTYYEDSVKGRFTISRDNSKNTLYLQMGSLRAEDMAVYYCARSFYGSGTYYDTFDMWGQGTMVTVSS VL: DIQMTQSPSSLSASIGDRVTITCRASQSISRYLNWYQQKPGKAPKLLIYAASSLQSGVPSRFSASGSGTDFTLTISSLQPEDFATYYCQQSYSTPFTFGQGTKLEIKR and report it.
Response given: 2
